Molecular target: 5-hydroxytryptamine receptor 1E (Homo sapiens) (UniProt P28566)
Sequence (P28566 whole entry, looked up): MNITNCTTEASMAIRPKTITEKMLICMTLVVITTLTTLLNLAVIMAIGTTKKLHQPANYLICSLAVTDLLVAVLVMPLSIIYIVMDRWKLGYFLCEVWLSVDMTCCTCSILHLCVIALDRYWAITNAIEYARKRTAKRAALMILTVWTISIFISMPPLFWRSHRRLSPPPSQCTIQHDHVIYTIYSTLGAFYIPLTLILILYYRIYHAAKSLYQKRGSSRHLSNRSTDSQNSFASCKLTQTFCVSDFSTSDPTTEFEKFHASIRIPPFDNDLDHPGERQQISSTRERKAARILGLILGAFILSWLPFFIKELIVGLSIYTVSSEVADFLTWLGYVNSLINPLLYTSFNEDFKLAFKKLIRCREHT
Assay: 5-HT1E receptor agonists, primary screen, cell-based, HTS (AID 574)
Settings: CHO 5-HT1E Ga15 NFAT-bla reporter, FRET; at 6 µM; 0% DMSO wells, 100% control agonist wells
The whole screen tested about 65,000 compounds, of which about 450 (0.69%) were called active.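 Rule for the calls: active = activation above a set limit, the screen-wide mean activation plus 3 SD (cut at about 8.5% in these data); inactive = the rest.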 Only a selection was taken, and actives are over-represented in it overall.
Use one of these outcomes when replying: active, inactive

Some solved entries appear below for comparison.
C=CCC(NCCCO)c1cccc(OC)c1OC (configuration not stated); active
Cc1ccc(N(C(=O)CC2NC(=O)NC2=O)C2(C(=O)NC3CCCC3)CCCCC2)cc1 (configuration not stated); inactive
COc1ccccc1C(=O)C(O)c1ccccc1OC (configuration not stated); inactive
CCSc1nc(=S)n(CC)c(C)c1C(C)=O; inactive

// param item: CCOc1c(OC)cc(C2C(C#N)=C(N)Oc3n[nH]c(-c4ccncc4)c32)cc1OC (configuration not stated) ; yields the recorded call inactive

In this assay, the call recorded for "CCN(CCCNC(=O)C1CCN(S(=O)(=O)c2cnc[nH]2)CC1)c1ccccc1" was what? inactive

// return assay outcome for CN(C)CCNC(CC(=O)Nc1ccc(Cl)c(Cl)c1)C(=O)O (configuration not stated) inactive

How did this test come out for "CCOC(=O)c1cc2c(n(-c3ccc(C)cc3)c1=O)CCCC2=O" ? inactive

What outcome does the record of this test show for "CCCOc1ccccc1C(=O)NCCCC(=O)O" ? inactive

Could you kindly confirm the outcome this assay logged for O=C(NC1CCCCC1)C1CCCN(S(=O)(=O)c2cccs2)C1 (configuration not stated) ? inactive

Assay outcome for "CCOc1ccc(-c2nnn(CC(=O)N3CCN(c4ccc(OC)cc4)CC3)n2)cc1OCC" : what was it? inactive

Name the outcome recorded for "O=c1nc(N2CCOCC2)nc2n1CCO2" in the assay. inactive
